- Target Or Test System: T1, extracellular domain of human CD73 protein, C-terminus polyhistidine-tagged (human, UniProt P21589 27-547)
- T1 construct: also the immunogen; also called CD73-ECD; human CD73-ECD
- T1 sequence: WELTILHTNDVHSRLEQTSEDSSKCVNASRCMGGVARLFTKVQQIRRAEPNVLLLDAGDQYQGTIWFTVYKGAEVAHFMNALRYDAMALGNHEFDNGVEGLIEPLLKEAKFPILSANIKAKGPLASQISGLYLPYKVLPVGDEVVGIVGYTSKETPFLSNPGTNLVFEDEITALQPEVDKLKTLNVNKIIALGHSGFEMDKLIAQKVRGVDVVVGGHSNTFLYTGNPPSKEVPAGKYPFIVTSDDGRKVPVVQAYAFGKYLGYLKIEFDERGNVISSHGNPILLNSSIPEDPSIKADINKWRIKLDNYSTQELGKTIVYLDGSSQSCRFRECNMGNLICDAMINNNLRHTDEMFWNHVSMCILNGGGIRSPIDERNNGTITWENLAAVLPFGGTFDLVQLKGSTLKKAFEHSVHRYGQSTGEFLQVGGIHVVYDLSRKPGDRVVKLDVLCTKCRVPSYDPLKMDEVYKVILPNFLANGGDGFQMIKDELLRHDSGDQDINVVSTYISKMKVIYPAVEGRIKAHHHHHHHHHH
- Assay Overview: ELISA on human CD73-ECD, 100 µL supernatant of transfected HEK293F cells; PBS blank 0.0675
The reader will find reported ELISA (OD450) values listed item by item below.
Give just the number in OD450; leave the unit off.

>>> readout_value("chimeric nanobody 2-B10 (Fc fusion, Tested as supernatant of transiently transfected HEK293F cells) VHH: QLQLVESGGGLVQPGGSLRLSCAASGFTLDDNAIGWFRQAPGKEREGVACMRTSDGDTYYADSVKGRFTISRDNAKNTMYLQMNSLKPEDTAVYYCAAALGTYYSGFYYLAGDGMDYWGKGTLVTVSS")
4.46

Q: Which ELISA (OD450) value belongs to chimeric nanobody 1-E7 (Fc fusion, Tested as supernatant of transiently transfected HEK293F cells) VHH: QVQLVESGGGLVQPGGSLRLSCAASGFTLDYYNIGWFRQAPGKEREGVSCISNSDGSTYYADSVKGRFTISRDNAKNTVYLQMNSLKPEDTAVYYCAAYRGWHPSLDARVYDYWGQGTQVTVSS ?
Result: 4.11

Q: Which ELISA (OD450) value belongs to chimeric nanobody 3-A3 (Fc fusion, Tested as supernatant of transiently transfected HEK293F cells) VHH: QVQLVESGGGSVQPGGSLRLSCAASGFPLDYYTIGWFRQAPGKELEGVSCISSSDSSPYDADSVKGRFTMSRDNANNTVYLQMNSLKPEDTAVYYCAAQRYYYCSLRANVYDYWGQGTQVTVSS ?
Result: 4.27

Q: Which ELISA (OD450) value belongs to chimeric nanobody 2-G9 (Fc fusion, Tested as supernatant of transiently transfected HEK293F cells) VHH: QLQLVESGGGLVQPGGSLRLSCAASGFLLDYYTIGWFRQAPGKELEGVSCISSSDSSPYDADSVKGRFTMSRDNANNTVYLQMNSLKPEDTAVYYCAAQRYYYCALRANVYDYWGQGTQVTVST ?
Result: 4.41

Q: Which ELISA (OD450) value belongs to chimeric nanobody 3-F1 (Fc fusion, Tested as supernatant of transiently transfected HEK293F cells) VHH: QVQLVESGVSLVQPGGSLRLSCAASGFTLDYYTIGWFRQAPGKELEGISCIRSSDSSPYDADSVKDRFTMSRDNANNTVYLQMNSLKPEDTADYYCAAQRYYYCSLTANVYDYWGQGTQVTVSS ?
Result: 3.01

FYI, the data here is from patent US20250382376A1.
